target: PYL5 (with HAB1) (Arabidopsis thaliana); construct: PYL5 from E. coli BL21(DE3), pET-28a or pGEX-4T-2 (TEV site), IMAC and SEC, monomer; HAB1 residues 169-511, GST cut by TEV; with Protein phosphatase 2C 16; assay: HAB1 phosphatase inhibition assay (phosphopeptide, molybdate)
Sequence (Q9FLB1 whole entry, the tested form may be a part): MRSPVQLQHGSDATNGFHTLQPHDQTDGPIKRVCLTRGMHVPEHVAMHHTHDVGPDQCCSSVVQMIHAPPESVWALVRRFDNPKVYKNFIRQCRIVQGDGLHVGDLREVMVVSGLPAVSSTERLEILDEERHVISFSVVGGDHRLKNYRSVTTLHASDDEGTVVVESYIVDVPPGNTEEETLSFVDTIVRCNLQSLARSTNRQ
Sequence (Q9CAJ0 169-511 partner): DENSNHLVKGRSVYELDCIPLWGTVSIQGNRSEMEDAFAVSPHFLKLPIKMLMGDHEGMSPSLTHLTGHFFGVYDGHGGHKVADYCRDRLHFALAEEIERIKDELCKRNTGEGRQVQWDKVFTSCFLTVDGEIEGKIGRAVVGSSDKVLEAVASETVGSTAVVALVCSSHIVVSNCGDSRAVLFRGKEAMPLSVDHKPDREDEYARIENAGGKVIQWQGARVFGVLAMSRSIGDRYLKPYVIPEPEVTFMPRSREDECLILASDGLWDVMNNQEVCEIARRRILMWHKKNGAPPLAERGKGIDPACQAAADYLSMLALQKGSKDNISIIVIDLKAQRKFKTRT
Observable: pIC50
Kindly note that pIC50 refers to -log10 of the concentration in mol/L and answer with the value alone.

Input CC1=CC(=O)CC(C)(C)[C@]1(O)/C=C/C(C)=C\C(=O)O [(−)-ABA] . Output pIC50: 6.77

====

target: PYL6 (with HAB1) (Arabidopsis thaliana, UniProt Q8S8E3); construct: PYL6 from E. coli BL21(DE3), pET-28a or pGEX-4T-2 (TEV site), IMAC and SEC; HAB1 residues 169-511, GST cut by TEV; with Protein phosphatase 2C 16; test: HAB1 phosphatase inhibition assay (phosphopeptide, molybdate)
Sequence (Q8S8E3 whole entry, the tested form may be a part): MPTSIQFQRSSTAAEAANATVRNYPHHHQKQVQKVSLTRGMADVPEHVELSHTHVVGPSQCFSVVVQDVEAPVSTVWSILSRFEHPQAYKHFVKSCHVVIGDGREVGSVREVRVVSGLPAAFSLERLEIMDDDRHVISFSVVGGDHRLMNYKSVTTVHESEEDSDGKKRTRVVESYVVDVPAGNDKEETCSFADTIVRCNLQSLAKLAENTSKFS
Sequence (Q9CAJ0 169-511 partner): as the sequence (Q9CAJ0 169-511 partner) above
Observable: IC50 (nM)
The answer is to be given in nM; state only the numeric part.

Kindly note: PYL6 (with HAB1) (Arabidopsis thaliana, UniProt Q8S8E3), CC1=CC(=O)CC(C)(C)[C@]1(O)/C=C/C(C)=C\C(=O)O [(−)-ABA] , IC50 value reported: 470
